tested on: Fibroblast; experiment: Multiplex assay against human fibroblast; assay type: toxicity, cell-based; conditions: 24 h, 10 µM, compound concentration 10 uM, replicate 2
The label yes (1) is reserved for Population Membrane Permeable-Phenotype (%) strictly under 70%; no (0) covers values equal to or above it.

In the record for CCOc1cc(C(=O)N2CCC(N3CCN(C)CC3)CC2)ccc1Nc1ncc2c(n1)N(C1CCCC1)c1ccccc1C(=O)N2C , is Population Membrane Permeable-Phenotype (%) less than 70%?
no (0)

In the record for CN1CCC(=C2c3ccccc3CC(=O)c3sccc32)CC1.O=C(O)/C=C/C(=O)O [KETOTIFEN FUMARATE] , is Population Membrane Permeable-Phenotype (%) less than 70%?
yes (1)

In the record for O=C1NC(=O)C(c2cnc3ccccn23)=C1c1cn2c3c(cc(F)cc13)CN(C(=O)N1CCCCC1)CC2 , is Population Membrane Permeable-Phenotype (%) less than 70%?
yes (1)

In the record for Cn1nc(C(F)(F)F)cc1-c1cnc(N2CCc3cc(S(=O)(=O)Nc4c(F)cc(Cl)cc4F)cc(N4CCCC4=O)c32)nc1 , is Population Membrane Permeable-Phenotype (%) less than 70%?
yes (1)

In the record for COc1cc2ncnc(Nc3ccc(F)c(Cl)c3)c2cc1NC(=O)/C=C/CN1CCCCC1 [DACOMITINIB ANHYDROUS] , is Population Membrane Permeable-Phenotype (%) less than 70%?
yes (1)

In the record for CN1CCN(C(=O)C(C)(C)c2ccc(C(=O)Nc3cn4cc(-c5cc(C(C)(C)C)cc(C(C)(C)C)c5)ccc4n3)cc2)CC1 , is Population Membrane Permeable-Phenotype (%) less than 70%?
yes (1)

In the record for CCCS(=O)(=O)c1nc(NC2CC2)cc(-c2ccc3c(ccn3C3CC(C)(C)NC(C)(C)C3)c2)n1 , is Population Membrane Permeable-Phenotype (%) less than 70%?
no (0)

In the record for CNc1cc(Oc2cc(C(=O)Nc3cc(N4CCN(C)CC4)cc(C(F)(F)F)c3)ccc2C)ncn1 , is Population Membrane Permeable-Phenotype (%) less than 70%?
no (0)

In the record for CCCn1c(=O)c2[nH]c(-c3cnn(Cc4cccc(C(F)(F)F)c4)c3)nc2n(CC)c1=O , is Population Membrane Permeable-Phenotype (%) less than 70%?
yes (1)

In the record for CCOc1cc2ncc(C#N)c(Nc3ccc(OCc4ccccn4)c(Cl)c3)c2cc1NC(=O)/C=C/CN(C)C , is Population Membrane Permeable-Phenotype (%) less than 70%?
yes (1)

In the record for O=C1N/C(=N/c2ccccc2F)S/C1=C\c1ccc(C(=O)O)cc1 , is Population Membrane Permeable-Phenotype (%) less than 70%?
yes (1)

In the record for COCC(=O)NC/C=C/c1ccc2ncnc(Nc3ccc(Oc4ccc(C)nc4)c(C)c3)c2c1 , is Population Membrane Permeable-Phenotype (%) less than 70%?
yes (1)

In the record for Cc1cc(C)c(S(=O)(=O)N(Cc2ccc(-c3cccc(S(C)(=O)=O)c3)cc2)Cc2ccc(C(F)(F)F)o2)c(C)c1 , is Population Membrane Permeable-Phenotype (%) less than 70%?
yes (1)

In the record for S=C(NCCCc1c[nH]cn1)NCCCN(Cc1ccc(Cl)c(Cl)c1)c1ccc(Br)cn1 , is Population Membrane Permeable-Phenotype (%) less than 70%?
no (0)

In the record for CCc1cccc(CC)c1NC(=O)c1nn(C)c2c1CCc1cnc(Nc3ccc(N4CCN(C)CC4)cc3OC)nc1-2 , is Population Membrane Permeable-Phenotype (%) less than 70%?
yes (1)
